Target: PAR2 (HT-29 cells) (Homo sapiens, UniProt P55085)
Construct: host or cells: HT-29
Sequence (P55085 26-397): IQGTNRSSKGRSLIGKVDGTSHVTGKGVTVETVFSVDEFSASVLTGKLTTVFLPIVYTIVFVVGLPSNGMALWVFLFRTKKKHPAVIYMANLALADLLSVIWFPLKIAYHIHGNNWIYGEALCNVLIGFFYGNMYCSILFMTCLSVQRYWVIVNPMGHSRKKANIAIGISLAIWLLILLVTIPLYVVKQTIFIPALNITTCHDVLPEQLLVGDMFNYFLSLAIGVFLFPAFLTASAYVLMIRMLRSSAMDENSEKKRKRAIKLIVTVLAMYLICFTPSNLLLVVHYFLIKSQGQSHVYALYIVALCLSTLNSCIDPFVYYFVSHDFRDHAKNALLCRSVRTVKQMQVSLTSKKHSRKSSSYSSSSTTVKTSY
Assay: Ca FLIPR TETRA assay, ANTAGONIST mode, activator 3.1 U/mL trypsin
Format: cell-based
Details: HT-29 cells; activator 3.1 U/mL trypsin; Method A: maximal concentration of antagonist 0.1, 1 or 2 μM
Reported property: pIC50
# reply with the number alone; pIC50 is -log10 of concentration in mol/L

Note pIC50 for the compound shown: `CC1(C)CCC(c2cc(C(C)(C)C)c3oc(C(=O)N4CCN(C(=O)CCC(C)(C)C(=O)O)CC4(C)C)cc3n2)CC1` 9.40

* * *

In this section we review reported IC50 values for a set of compounds.
target: PAR2 (HT-29 cells) (Homo sapiens, UniProt P55085); construct: host or cells: HT-29; assay: Ca FLIPR TETRA assay, ANTAGONIST mode, activator 3.1 U/mL trypsin; type: cell-based; conditions: HT-29 cells, activator 3.1 U/mL trypsin; maximal antagonist concentration per Method (A: 0.1, 1 or 2 μM; B: 50 μM)
Supply the numeric figure in µM, leaving out any unit text.

Give me measured IC50, please, for this compound: `CC[C@@H](O)C(=O)N1CCN(C(=O)c2cc3nc(-c4ccc(F)cc4)cc(C(C)C)c3o2)C(C)(C)C1` 0.011

Provide one value: measured IC50 of `CC(C)(C)c1cc(-c2ccc(Cl)c(F)c2)nc2cc(C(=O)N3CCN(C(=O)c4cccnc4)CC3(C)C)oc12` 0.18

Assign IC50 to the following record: `CC(C)(C)c1cc(-c2ccc(Cl)c(F)c2)nc2cc(C(=O)N3CCN(c4cccnc4)CC3(C)C)oc12` 0.025

Note IC50 for the compound shown: `COC(=O)C12CC(C(=O)N3CCN(C(=O)c4cc5nc(-c6ccc(F)cc6)cc(C(C)(C)C)c5o4)C(C)(C)C3)(C1)C2` 0.013

Given `CC(C)c1cc(-c2ccc(F)cc2)nc2cc(C(=O)N3CCN(C(=O)[C@H](O)CC(C)(C)C)CC3)oc12` , respond with its IC50. 0.62

Input CC(C)(C)c1cc(-c2ccc(Cl)c(F)c2)nc2cc(C(=O)N3CCNC(=O)C3(C)C)oc12 [Example I-176] , output reported IC50. 0.005

* * *

target: PAR2 (HT-29 cells) (Homo sapiens); construct: host or cells: HT-29; assay: Ca FLIPR TETRA assay, ANTAGONIST mode, activator 3.1 U/mL trypsin; assay type: cell-based; conditions: HT-29 cells, activator 3.1 U/mL trypsin; maximal antagonist concentration per Method (A: 0.1, 1 or 2 μM; B: 50 μM)
Reported property: IC50

Give measured IC50 for `CC(C)(C)c1cc(-c2ccc(Cl)cc2)nc2cc(C(=O)N3CCN(c4cccnc4)CC3(C)C)oc12` (PAR2 (HT-29 cells) (Homo sapiens)). 41 nM

Name the recorded IC50 of `CC(C)c1cc(-c2ccc(F)cc2)nc2cc(C(=O)N3CCN(C(=O)C(C)(C)O)[C@@H](C)C3)oc12` , assay system PAR2 (HT-29 cells) (Homo sapiens). 3800 nM

Please tell me the measured IC50 for `CC(C)c1cc(-c2ccc(F)cc2)nc2cc(C(=O)N3CCN(C(=O)C(C)(C)O)C[C@@H]3C)oc12` ; system: PAR2 (HT-29 cells) (Homo sapiens). 7700 nM

Report measured IC50 on PAR2 (HT-29 cells) (Homo sapiens); entry: `CO[C@H](C)C(=O)N1CCN(C(=O)c2cc3nc(-c4ccc(F)cc4)cc(C4(C)CC4)c3o2)C(C)(C)C1` 32 nM

Under PAR2 (HT-29 cells) (Homo sapiens): report IC50 of `CC1(c2cc(-c3ccc(F)cc3)nc3cc(C(=O)N4CCN(C(=O)C5(O)CCC5)CC4(C)C)oc23)CC1` . 31 nM

Please look at `CC(C)(C)c1cc(-c2ccc(F)cc2)nc2cc(C(=O)N3CCN(C(=O)[C@H]4C[C@@](C)(O)C4)CC3(C)C)oc12` and tell me its recorded IC50 on PAR2 (HT-29 cells) (Homo sapiens). 2.7 nM

Specify IC50 for `CC(C)(C)c1cc(-c2ccc(F)cc2)nc2cc(C(=O)N3CCN(C(=O)[C@H]4C[C@@H]4C(=O)O)CC3(C)C)oc12` , system PAR2 (HT-29 cells) (Homo sapiens). 76 nM

* * *

target: PAR2 (HT-29 cells) (Homo sapiens, UniProt P55085); construct: host or cells: HT-29; experiment: Ca FLIPR TETRA assay, ANTAGONIST mode, activator 3.1 U/mL trypsin; format: cell-based; details: HT-29 cells; activator 3.1 U/mL trypsin; Method A: maximal concentration of antagonist 0.1, 1 or 2 μM
Reported property: IC50 (nM)
Express it in nM; write the number only.

Compound	Observed measurement
CCS(=O)(=O)NCC(=O)N1CCN(C(=O)c2cc3nc(-c4ccc(Cl)c(F)c4)cc(C(C)(C)C)c3o2)C(C)(C)C1 [Example I-468]	4.7

Give the reported value of IC50 for this record: CC(C)(C)c1cc(-c2ccc(Cl)cc2)nc2cc(C(=O)N3CCN(c4ccnnc4)CC3(C)C)oc12 [Example I-349] 75

Kindly indicate its recorded IC50. Item: CC(C)(C)c1cc(-c2ccc(Cl)c(F)c2)nc2cc(C(=O)N3CCN(c4cccc(C(=O)NS(C)(=O)=O)n4)CC3(C)C)oc12 [Example I-540] 0.3

Read off the recorded IC50 for Cc1ccc(C(=O)O)c(N2CCN(C(=O)c3cc4nc(-c5ccc(Cl)c(F)c5)cc(C(C)(C)C)c4o3)C(C)(C)C2)n1 [Example I-352] 3.1

Recall and state the measured IC50 for CC(C)(C)c1cc(C2CCC(Cl)(Cl)CC2)nc2cc(C(=O)N3CCN(C(=O)[C@H]4CC[C@@](C)(C(=O)O)CC4)CC3(C)C)oc12 [Example I-303] . 0.6

Supply IC50 value. Item: CC(C)(C)c1cc(-c2ccc(Cl)c(F)c2)nc2cc(C(=O)N3CCC(c4nc(C(=O)O)cs4)CC3(C)C)oc12 (stereo not shown) [Example I-424] 0.3

Identify the reported IC50 for the following entry. COc1nc(N2CCN(C(=O)c3cc4nc(-c5ccc(Cl)c(F)c5)cc(C(C)(C)C)c4o3)C(C)(C)C2)ccc1C(=O)O [Example I-498] 0.3

Answer with reported IC50 of Cc1ccnc(N2CCN(C(=O)c3cc4nc(C5CCC(C)(C)CC5)cc(C(C)(C)C)c4o3)C(C)(C)C2=O)n1 [Example I-339] 3.1

Quick one: give measured IC50 for CCC(CC)c1cc(-c2ccc(F)cc2)nc2cc(C(=O)N3CCN(C#N)C(=O)C3(C)C)oc12 [Example I-302] 19.5

# return recorded IC50 for entry CC(C)(C)c1cc(-c2ccc(Cl)cc2)nc2cc(C(=O)N3CCN(c4cncc(C(=O)O)n4)CC3(C)C)oc12 [Example I-463] 0.9

* * *

Molecular target: PAR2 (HT-29 cells) (Homo sapiens, UniProt P55085)
Construct: host or cells: HT-29
Sequence (P55085 26-397): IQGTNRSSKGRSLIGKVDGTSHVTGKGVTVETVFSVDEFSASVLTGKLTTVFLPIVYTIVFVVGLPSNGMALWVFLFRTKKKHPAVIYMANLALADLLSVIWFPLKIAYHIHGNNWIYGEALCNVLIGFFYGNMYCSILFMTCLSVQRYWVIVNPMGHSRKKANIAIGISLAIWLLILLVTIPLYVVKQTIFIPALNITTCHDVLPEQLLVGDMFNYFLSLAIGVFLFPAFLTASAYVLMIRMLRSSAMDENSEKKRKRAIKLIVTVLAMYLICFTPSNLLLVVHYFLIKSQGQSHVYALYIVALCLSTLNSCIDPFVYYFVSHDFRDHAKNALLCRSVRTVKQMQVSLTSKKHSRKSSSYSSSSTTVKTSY
Test: Ca FLIPR TETRA assay, ANTAGONIST mode, activator 3.1 U/mL trypsin
Format: cell-based
Settings: HT-29 cells, activator 3.1 U/mL trypsin; maximal antagonist concentration per Method (A: 0.1, 1 or 2 μM; B: 50 μM)
Reported property: IC50 (nM)
Please respond with the number in nM and leave the unit unwritten.

Compound	Unit abbreviation	IC50
CC(C)(C)c1cc(C2CC3(CCC3)C2)nc2cc(C(=O)N3CCN(C(=O)[C@H]4CC[C@@](C)(C(=O)O)CC4)CC3(C)C)oc12 [Example I-297]	nM	0.2
CC(C)(C)c1cc(-c2ccc(Cl)cc2)nc2cc(C(=O)N3CCN(c4cn[nH]c4)CC3(C)C)oc12 [Example I-273]	nM	14

# return recorded IC50 for entry Cc1cc(-c2cc(C(C)(C)C)c3oc(C(=O)N4CCN(C(=O)c5ccn[nH]5)CC4(C)C)cc3n2)ccc1F [Example I-167] 19
